test system: 463943-066-T-J2-PDC complex spheroid growth; assay: Anticancer human tumor 463943-066-T-J2-PDC patient-derived colon adenocarcinoma cell line growth inhibition [Asc]; details: second compound 3.16 µM; first compound 0.01 µM; active compounds read low
Here, each record is paired with measured viability, T/C data.
// return numeric value only (unit: %, not printed)

molecule	measurement_target	result_unit	viability, T/C
COc1c(OCCCN2CCOCC2)ccc2c3n(c(=NC(=O)c4cnc(N)nc4)nc12)CCN3 + Cc1c(S(C)(=O)=O)c(-c2cc(F)cc(N3CCN(c4ccc(NS(=O)(=O)c5ccc(NC(CCN6CCC(C(=O)OCCCP(=O)(O)O)CC6)CSc6ccccc6)c(S(=O)(=O)C(F)(F)F)c5)cc4)CC3)c2)c(-c2ccc(Cl)cc2)n1C(C)C	463943-066-T-J2-PDC complex spheroid growth	%	58.8
Cn1ncnc1[C@H]1c2n[nH]c(=O)c3cc(F)cc(c23)N[C@@H]1c1ccc(F)cc1 + Cc1c(S(C)(=O)=O)c(-c2cc(F)cc(N3CCN(c4ccc(NS(=O)(=O)c5ccc(NC(CCN6CCC(C(=O)OCCCP(=O)(O)O)CC6)CSc6ccccc6)c(S(=O)(=O)C(F)(F)F)c5)cc4)CC3)c2)c(-c2ccc(Cl)cc2)n1C(C)C	463943-066-T-J2-PDC complex spheroid growth	%	61

Then this molecule:
Query: Give 463943-066-T-J2-PDC complex spheroid growth viability, T/C for the following molecule: NC1CCC(NC2CC2c2ccccc2)CC1 (stereo not drawn) + Cc1c(S(C)(=O)=O)c(-c2cc(F)cc(N3CCN(c4ccc(NS(=O)(=O)c5ccc(NC(CCN6CCC(C(=O)OCCCP(=O)(O)O)CC6)CSc6ccccc6)c(S(=O)(=O)C(F)(F)F)c5)cc4)CC3)c2)c(-c2ccc(Cl)cc2)n1C(C)C
Reply: 58.6

* * *

test system: 463943-066-T-J2-PDC complex spheroid growth; test: Anticancer human tumor 463943-066-T-J2-PDC cell line growth inhibition [Asc]; conditions: second compound 0.1 µM; first compound 0.316 µM; active compounds read low;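 further: compound exposure lasted 7 days; 100% = DMSO vehicle control wells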
metric_name: viability, T/C

molecule	viability, T/C
O=C(c1cc(Cc2n[nH]c(=O)c3ccccc23)ccc1F)N1CCN(C(=O)C2CC2)CC1 + Cc1c(S(C)(=O)=O)c(-c2cc(F)cc(N3CCN(c4ccc(NS(=O)(=O)c5ccc(NC(CCN6CCC(C(=O)OCCCP(=O)(O)O)CC6)CSc6ccccc6)c(S(=O)(=O)C(F)(F)F)c5)cc4)CC3)c2)c(-c2ccc(Cl)cc2)n1C(C)C	94.1%

Query: Respond only with viability, T/C recorded for O=C(c1ccc(F)c(F)c1Nc1ccc(I)cc1F)N1CC(O)([C@@H]2CCCCN2)C1 + Cc1c(S(C)(=O)=O)c(-c2cc(F)cc(N3CCN(c4ccc(NS(=O)(=O)c5ccc(NC(CCN6CCC(C(=O)OCCCP(=O)(O)O)CC6)CSc6ccccc6)c(S(=O)(=O)C(F)(F)F)c5)cc4)CC3)c2)c(-c2ccc(Cl)cc2)n1C(C)C
Reply: 38.7%

Query: Indicate its recorded viability, T/C; the molecule in question is COc1c(OCCCN2CCOCC2)ccc2c3n(c(=NC(=O)c4cnc(N)nc4)nc12)CCN3 + Cc1c(S(C)(=O)=O)c(-c2cc(F)cc(N3CCN(c4ccc(NS(=O)(=O)c5ccc(NC(CCN6CCC(C(=O)OCCCP(=O)(O)O)CC6)CSc6ccccc6)c(S(=O)(=O)C(F)(F)F)c5)cc4)CC3)c2)c(-c2ccc(Cl)cc2)n1C(C)C
Reply: 55.7%

* * *

tested on: 463943-066-T-J2-PDC complex spheroid growth; experiment: Anticancer human tumor 463943-066-T-J2-PDC cell line growth inhibition [Asc]; details: second compound 0.1 µM; first compound 0.316 µM; active compounds read low;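 further: compound exposure lasted 7 days; 100% = DMSO vehicle control wells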
Entries and their viability, T/C
// note: answer is a bare numeric in %

Below are worked cases with known answers.
molecule	experimental_value
C=CC(=O)N1CCN(c2nc(=O)n(-c3c(C)ccnc3C(C)C)c3nc(-c4c(O)cccc4F)c(F)cc23)C(C)C1 (configuration not stated) + Cc1c(S(C)(=O)=O)c(-c2cc(F)cc(N3CCN(c4ccc(NS(=O)(=O)c5ccc(NC(CCN6CCC(C(=O)OCCCP(=O)(O)O)CC6)CSc6ccccc6)c(S(=O)(=O)C(F)(F)F)c5)cc4)CC3)c2)c(-c2ccc(Cl)cc2)n1C(C)C	91.4
CCN1CCN(Cc2ccc(Nc3ncc(F)c(-c4cc(F)c5nc(C)n(C(C)C)c5c4)n3)nc2)CC1 + Cc1c(S(C)(=O)=O)c(-c2cc(F)cc(N3CCN(c4ccc(NS(=O)(=O)c5ccc(NC(CCN6CCC(C(=O)OCCCP(=O)(O)O)CC6)CSc6ccccc6)c(S(=O)(=O)C(F)(F)F)c5)cc4)CC3)c2)c(-c2ccc(Cl)cc2)n1C(C)C	103
O=C(c1ccc(F)c(F)c1Nc1ccc(I)cc1F)N1CC(O)([C@@H]2CCCCN2)C1 + CNC(C)C(=O)NC1CN(S(=O)(=O)c2cccc(S(=O)(=O)N3CCC4CCC(C(=O)NC(c5ccccc5)c5ccccc5)N4C(=O)C(NC(=O)C(C)NC)C3)c2)CCC2CCC(C(=O)NC(c3ccccc3)c3ccccc3)N2C1=O	46.8
CCN1CCN(Cc2ccc(Nc3ncc(F)c(-c4cc(F)c5nc(C)n(C(C)C)c5c4)n3)nc2)CC1 + CNC(C)C(=O)NC1CN(S(=O)(=O)c2cccc(S(=O)(=O)N3CCC4CCC(C(=O)NC(c5ccccc5)c5ccccc5)N4C(=O)C(NC(=O)C(C)NC)C3)c2)CCC2CCC(C(=O)NC(c3ccccc3)c3ccccc3)N2C1=O	113
C#Cc1c(F)ccc2cc(O)cc(-c3ncc4c(N5CC6CCC(C5)N6)nc(OCC56CCCN5CC(F)C6)nc4c3F)c12 (configuration not stated) + CNC(C)C(=O)NC1CN(S(=O)(=O)c2cccc(S(=O)(=O)N3CCC4CCC(C(=O)NC(c5ccccc5)c5ccccc5)N4C(=O)C(NC(=O)C(C)NC)C3)c2)CCC2CCC(C(=O)NC(c3ccccc3)c3ccccc3)N2C1=O	98
O=C(c1cc(Cc2n[nH]c(=O)c3ccccc23)ccc1F)N1CCN(C(=O)C2CC2)CC1 + CNC(C)C(=O)NC1CN(S(=O)(=O)c2cccc(S(=O)(=O)N3CCC4CCC(C(=O)NC(c5ccccc5)c5ccccc5)N4C(=O)C(NC(=O)C(C)NC)C3)c2)CCC2CCC(C(=O)NC(c3ccccc3)c3ccccc3)N2C1=O	90.6

Now for a further molecule.
Query: Fill in viability, T/C for record C#Cc1c(F)ccc2cc(O)cc(-c3ncc4c(N5CC6CCC(C5)N6)nc(OCC56CCCN5CC(F)C6)nc4c3F)c12 (configuration not stated) + Cc1c(S(C)(=O)=O)c(-c2cc(F)cc(N3CCN(c4ccc(NS(=O)(=O)c5ccc(NC(CCN6CCC(C(=O)OCCCP(=O)(O)O)CC6)CSc6ccccc6)c(S(=O)(=O)C(F)(F)F)c5)cc4)CC3)c2)c(-c2ccc(Cl)cc2)n1C(C)C
Reply: 101

* * *

test system: 463943-066-T-J2-PDC complex spheroid growth; assay: Anticancer human tumor 463943-066-T-J2-PDC cell line growth inhibition [Asc]; settings: second compound 0.00949 µM; first compound 10 µM; active compounds read low;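 further: compound exposure lasted 7 days; 100% = DMSO vehicle control wells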
metric_name: viability, T/C

Below: 3 compounds and their reported viability, T/C.
compound	measurement_target	experimental_value
O=C(c1cc(Cc2n[nH]c(=O)c3ccccc23)ccc1F)N1CCN(C(=O)C2CC2)CC1 + CCN1C(C(=O)NC23CCC(C(=O)O)(CC2)CC3)C(c2cccc(Cl)c2F)C2(C(=O)Nc3cc(Cl)ccc32)C12CCCCC2	463943-066-T-J2-PDC complex spheroid growth	91.5%
C=CC(=O)N1CCN(c2nc(=O)n(-c3c(C)ccnc3C(C)C)c3nc(-c4c(O)cccc4F)c(F)cc23)C(C)C1 (centres undefined) + CCN1C(C(=O)NC23CCC(C(=O)O)(CC2)CC3)C(c2cccc(Cl)c2F)C2(C(=O)Nc3cc(Cl)ccc32)C12CCCCC2	463943-066-T-J2-PDC complex spheroid growth	98%
C#Cc1c(F)ccc2cc(O)cc(-c3ncc4c(N5CC6CCC(C5)N6)nc(OCC56CCCN5CC(F)C6)nc4c3F)c12 (centres undefined) + CCN1C(C(=O)NC23CCC(C(=O)O)(CC2)CC3)C(c2cccc(Cl)c2F)C2(C(=O)Nc3cc(Cl)ccc32)C12CCCCC2	463943-066-T-J2-PDC complex spheroid growth	88.3%

Query: Identify measured viability, T/C associated with C=C(F)C(=O)N1CCN(c2nc(OCC3CCCN3C)nc3c2CCN(c2cccc4cccc(Cl)c24)C3)CC1CC#N (centres undefined) + CCN1C(C(=O)NC23CCC(C(=O)O)(CC2)CC3)C(c2cccc(Cl)c2F)C2(C(=O)Nc3cc(Cl)ccc32)C12CCCCC2
Reply: 17.2%

* * *

test system: 463943-066-T-J2-PDC complex spheroid growth; test: Anticancer human tumor 463943-066-T-J2-PDC cell line growth inhibition [Asc]; details: second compound 0.01 µM; first compound 0.1 µM; active compounds read low;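 further: compound exposure lasted 7 days; 100% = DMSO vehicle control wells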
viability, T/C listing for selected compounds.

compound	experimental_value
C#Cc1c(F)ccc2cc(O)cc(-c3ncc4c(N5CC6CCC(C5)N6)nc(OCC56CCCN5CC(F)C6)nc4c3F)c12 (configuration not stated) + CNC(C)C(=O)NC1CN(S(=O)(=O)c2cccc(S(=O)(=O)N3CCC4CCC(C(=O)NC(c5ccccc5)c5ccccc5)N4C(=O)C(NC(=O)C(C)NC)C3)c2)CCC2CCC(C(=O)NC(c3ccccc3)c3ccccc3)N2C1=O	99.9%

As a next step, examine the compound that follows.
Query: Complete the entry with viability, T/C for O=C(c1cc(Cc2n[nH]c(=O)c3ccccc23)ccc1F)N1CCN(C(=O)C2CC2)CC1 + CNC(C)C(=O)NC1CN(S(=O)(=O)c2cccc(S(=O)(=O)N3CCC4CCC(C(=O)NC(c5ccccc5)c5ccccc5)N4C(=O)C(NC(=O)C(C)NC)C3)c2)CCC2CCC(C(=O)NC(c3ccccc3)c3ccccc3)N2C1=O
Reply: 87.5%
